# MEASUREMENT TARGET: HCV RNA-dependent RNA polymerase NS5B (Δ21) (Hepatitis C virus genotype 1b)
# ASSAY COMMENT: Assay for HCV RNA-dependent RNA polymerase activity (SPA, [3H]-GTP incorporation)
# Assay type: biochemical
Let's look at some molecules and their measured pIC50.
Lab note — pIC50 values are minus log10 of concentrations in M.

# MOLECULE, MEASURED VALUE
rows = [
    ("O=C(Cn1nc(C(=O)O)cc1OCc1ccccc1CS(=O)(=O)c1ccccc1)Nc1ccccc1OCc1ccccc1", 6.10),
    ("Cc1cccc(COc2cc(C(=O)O)nn2CC(=O)N[C@H]2CCCC[C@@H]2OCc2ccccc2)c1F", 5.08),
    ("O=C(Cn1nc(C(=O)O)cc1OCc1cc(C(F)(F)F)ccc1F)N[C@H]1CCCC[C@@H]1OCc1ccccc1", 5.21),
    ("Cc1cc(COc2cc(C(=O)O)nn2CC(=O)N[C@H]2CCCC[C@@H]2OCc2ccccc2)ccc1F", 5.51),
    ("O=C(Cn1nc(C(=O)O)cc1OCc1ccccc1)N[C@H]1CCCC[C@@H]1OCc1ccccc1", 4.37),
]

Req: # query: pIC50 | item O=C(Cn1nc(C(=O)O)cc1OCc1ccccc1-c1ccccc1Cl)N[C@H]1CCCC[C@@H]1OCc1ccccc1 | system: HCV RNA-dependent RNA polymerase NS5B (Δ21) (Hepatitis C virus genotype 1b)
Resp: 5.59

Req: // map CCOc1ccccc1COc1cc(C(=O)O)nn1CC(=O)N[C@H]1CCCC[C@@H]1OCc1ccccc1 to recorded pIC50 (system: HCV RNA-dependent RNA polymerase NS5B (Δ21) (Hepatitis C virus genotype 1b))
Resp: 6.00

Req: Param readout= pIC50; system= HCV RNA-dependent RNA polymerase NS5B (Δ21) (Hepatitis C virus genotype 1b); entry= O=C(Cn1nc(C(=O)O)cc1OCc1ccccc1I)N[C@H]1CCCC[C@@H]1OCc1ccccc1 ; returns value.
Resp: 5.19

Req: Quick check: pIC50 on HCV RNA-dependent RNA polymerase NS5B (Δ21) (Hepatitis C virus genotype 1b), item O=C(Cn1nc(C(=O)O)cc1OCc1cc(F)cc(C(F)(F)F)c1)N[C@H]1CCCC[C@@H]1OCc1ccccc1 ?
Resp: 5.74

Req: Record O=C(Cn1nc(C(=O)O)cc1OCc1cccc(Cl)c1F)N[C@H]1CCCC[C@@H]1OCc1ccccc1 : what is its pIC50 with HCV RNA-dependent RNA polymerase NS5B (Δ21) (Hepatitis C virus genotype 1b)?
Resp: 5.04

Req: Identify the measured pIC50 of O=C(Cn1nc(C(=O)O)cc1OCc1ccc(F)c(C(F)(F)F)c1)N[C@H]1CCCC[C@@H]1OCc1ccccc1 for HCV RNA-dependent RNA polymerase NS5B (Δ21) (Hepatitis C virus genotype 1b).
Resp: 5.85

----------
Some molecules, each annotated with its measured pIC50.
# MEASUREMENT TARGET: UniProt P26663
// field semantics: pIC50 = negative decimal log of concentration (mol/L)

Below, each entry is followed by its recorded pIC50 result.
# MOLECULE, pIC50
rows = [
    ("O=C(Cn1nc(C(=O)O)cc1OCc1ccc(C(F)(F)F)cc1)N[C@H]1CCCC[C@@H]1OCc1ccccc1", 6.21),
    ("O=C(Cn1nc(C(=O)O)cc1OCc1ccc(C(F)(F)F)cc1F)N[C@H]1CCCC[C@@H]1OCc1ccccc1", 5.21),
]

Req: Kindly state the measured pIC50 obtained for O=C(Cn1nc(C(=O)O)cc1OCc1ccccc1-c1ccsc1)N[C@H]1CCCC[C@@H]1OCc1ccccc1 with UniProt P26663.
Resp: 6.12

----------
Quick record: log10 IC50, UniProt:P26663.
Could you please treat all values as log10 of IC50 in µM?

Known log10 IC50 results, listed for orientation:
# MOLECULE, log10 IC50
measured = [
    ("O=C(Cn1nc(C(=O)O)cc1OCc1cccc(Oc2ccccc2F)c1)N[C@H]1CCCC[C@@H]1OCc1ccccc1 [Compound 39]", 0.34),
    ("O=C(Cn1nc(C(=O)O)cc1OCc1cc(F)ccc1C(F)(F)F)N[C@H]1CCCC[C@@H]1OCc1ccccc1 [Compound 33]", 0.46),
    ("O=C(Cn1nc(C(=O)O)cc1OCc1cc(F)cc(F)c1)N[C@H]1CCCC[C@@H]1OCc1ccccc1 [Compound 23]", 1.08),
    ("O=C(Cn1nc(C(=O)O)cc1OCc1ccccc1-c1ccc(C(F)(F)F)cc1)NCCCc1ccccc1 [Compound 63]", 1.08),
    ("O=C(Cn1nc(C(=O)O)cc1OCc1ccc2ccccc2c1)N[C@H]1CCCC[C@@H]1OCc1ccccc1 [Compound 45]", 0.83),
]

Req: For UniProt:P26663, provide log10 IC50 of O=C(Cn1nc(C(=O)O)cc1OCc1ccccc1-c1cccc(Cl)c1)N[C@H]1CCCC[C@@H]1OCc1ccccc1 [Compound 53] please.
Resp: -0.11

Req: Item O=C(Cn1nc(-c2nnn[nH]2)cc1OCc1ccccc1-c1ccc(C(F)(F)F)cc1)N[C@H]1CCCC[C@@H]1OCc1ccccc1 [Compound 66] with UniProt:P26663 - log10 IC50?
Resp: -1.24

----------
IC50 values, listed per item
# MEASUREMENT TARGET: HCV RNA-dependent RNA polymerase NS5B (Δ21) (Hepatitis C virus genotype 1b, UniProt P26663)
# Sequence (P26663 2420-2989, stated change not applied): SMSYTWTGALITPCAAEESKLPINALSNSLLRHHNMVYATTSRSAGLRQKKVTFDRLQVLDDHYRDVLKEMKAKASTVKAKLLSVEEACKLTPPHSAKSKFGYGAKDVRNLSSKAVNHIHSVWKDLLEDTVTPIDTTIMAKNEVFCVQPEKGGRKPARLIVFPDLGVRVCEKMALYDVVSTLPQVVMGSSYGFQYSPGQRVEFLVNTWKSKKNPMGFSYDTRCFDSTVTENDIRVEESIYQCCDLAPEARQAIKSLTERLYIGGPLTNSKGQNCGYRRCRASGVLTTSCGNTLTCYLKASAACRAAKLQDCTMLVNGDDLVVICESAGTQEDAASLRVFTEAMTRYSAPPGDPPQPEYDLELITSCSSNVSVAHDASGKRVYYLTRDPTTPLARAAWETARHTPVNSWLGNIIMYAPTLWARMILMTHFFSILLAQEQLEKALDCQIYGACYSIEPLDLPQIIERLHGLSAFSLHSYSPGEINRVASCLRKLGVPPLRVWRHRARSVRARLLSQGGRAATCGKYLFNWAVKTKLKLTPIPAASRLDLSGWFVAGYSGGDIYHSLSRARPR

For orientation, consider the following solved cases.
# MOLECULE, IC50
rows = [
    ("COc1cccc(COc2cc(C(=O)O)nn2CC(=O)N[C@H]2CCCC[C@@H]2OCc2ccccc2)c1", "> 50 µM"),
    ("O=C(Cn1nc(C(=O)O)cc1OCc1cccc(F)c1F)N[C@H]1CCCC[C@@H]1OCc1ccccc1", "> 12.5 µM"),
    ("O=C(Cn1nc(C(=O)O)cc1OCc1c(F)cccc1F)N[C@H]1CCCC[C@@H]1OCc1ccccc1", "> 50 µM"),
]

Query compound follows.
Req: Would you kindly share the measured IC50 for O=C(Cn1nc(C(=O)O)cc1OCc1ccsc1)N[C@H]1CCCC[C@@H]1OCc1ccccc1 ?
Resp: > 12.5 µM

----------
# MEASUREMENT TARGET: UniProtKB P26663
Each entry below carries its reported IC50.

// worked examples, IC50 included
# MOLECULE, IC50
records = [
    ("CC(C)COc1cc(C(=O)O)nn1CC(=O)N[C@H]1CCCC[C@@H]1OCc1ccccc1", "> 50 µM"),
    ("O=C(Cn1nc(C(=O)O)cc1OCc1cccc(C(=O)O)c1)N[C@H]1CCCC[C@@H]1OCc1ccccc1", "> 50 µM"),
    ("O=C(Cn1nc(C(=O)O)cc1OCc1ccccc1-c1cccc(C(=O)O)c1)N[C@H]1CCCC[C@@H]1OCc1ccccc1", "> 12.5 µM"),
]

Now consider a different molecule.
Req: State its IC50 on UniProtKB P26663: CC(C)(C)COc1cc(C(=O)O)nn1CC(=O)N[C@H]1CCCC[C@@H]1OCc1ccccc1
Resp: > 12.5 µM
